# Read-out: TIMP metallopeptidase inhibitor 2 (TIMP2), TIMP2 (gene 7077)
# ASSAY NAME: BSK_KF3CT_TIMP2: BioMAP Diversity Plus: KF3CT Assay for TIMP metallopeptidase inhibitor 2 (TIMP2) Biomarker Activity (AID 2283071)
# CONDITION PARAMETERS: primary human keratinocytes with fibroblasts; actives raise or lower the signal
# Method: BSK_KF3CT is a cell-based, multiplexed-readout assay that uses keratinocytes and foreskin fibroblasts, a human skin primary cell co-culture, with measurements taken at 24 hours after chemical dosing in a 96-well plate.BSK_KF3CT_TIMP2 is an assay component measured in the BSK_KF3CT assay. It measures TIMP-2 antibody related to regulation of gene expression using ELISA technology.Data from the assay component BSK_KF3CT_TIMP2 was analyzed into 1 assay endpoint. […]
The source made the active and inactive calls. How the source made its calls: active means hit-call score of the fitted dose curve at least 0.9, where 1 is the maximum; inactive means score below 0.9.
Can you answer with just one of these options? True (active), False (inactive)

Answered cases to consult:
Q. Short answer needed: outcome of this test for O=C(O)C(F)(F)C(F)(F)C(F)(F)C(F)(F)C(=O)O ?
A. False

Q. Short answer needed: outcome of this test for C=CC(=O)OCCCCCCOC(=O)C=C ?
A. True

Q. Short answer needed: outcome of this test for COC(OC)(C(=O)c1ccccc1)c1ccccc1 ?
A. False

Q. Short answer needed: outcome of this test for CCCCCCCCCCCC(=O)N(C)CC(=O)O ?
A. False

Q. Short answer needed: outcome of this test for C=CC(=O)NC(C)(C)C ?
A. False

***
Q. Short answer needed: outcome of this test for CCCCCCOC(=O)CCCCC(=O)OCCCCCC ?
A. False

Q. Short answer needed: outcome of this test for CCN1CN(CC)CN(CC)C1 ?
A. False

----------
# SYSTEM TESTED: Nuclear receptor subfamily 1 group I member 2 (Homo sapiens)
# ASSAY NAME: ATG_PXR_TRANS: Attagene TRANS-FACTORIAL HepG2 Assay for human Pregnane X Receptor (PXR) (AID 2283008)
Records with an inconclusive call do not appear. The source made the active and inactive calls. The calls were made as follows: active = hit-call score of the fitted dose curve at least 0.9, where 1 is the maximum; inconclusive = response in the unintended direction; inactive = score below 0.9.
Can you answer with just one of these options? active, inactive

Answered cases to consult:
Q. Short answer needed: outcome of this test for NNS(=O)(=O)c1ccc(Oc2ccc(S(=O)(=O)NN)cc2)cc1 ?
A. inactive

Q. Short answer needed: outcome of this test for CCCCC1CCC(=O)O1 (stereo unspecified) ?
A. active

Q. Short answer needed: outcome of this test for CC(=O)c1ccc(S(=O)(=O)NC(=O)NC2CCCCC2)cc1 ?
A. inactive

Q. Short answer needed: outcome of this test for CC=CC(=O)OCC(C)C ?
A. inactive

***
Q. Short answer needed: outcome of this test for CCCCCCCCCCCC(=O)N(C)CC(=O)O ?
A. inactive

Q. Short answer needed: outcome of this test for O=c1c(O)c(-c2ccc(O)cc2O)oc2cc(O)cc(O)c12 ?
A. inactive

Q. Short answer needed: outcome of this test for COc1cc(C)ccc1O ?
A. inactive

Q. Short answer needed: outcome of this test for Cc1cc(=O)[nH]c(=O)[nH]1 ?
A. inactive

Q. Short answer needed: outcome of this test for N#Cc1ccc(C2CCCc3cncn32)cc1 (stereo unspecified) ?
A. inactive

Q. Short answer needed: outcome of this test for CCCC1CCCC(=O)O1 (stereo unspecified) ?
A. inactive

Q. Short answer needed: outcome of this test for CCCCCCCO ?
A. inactive

Q. Short answer needed: outcome of this test for CC(=O)CCC1=C(C)CCCC1(C)C ?
A. active
